test system: MS2 coat protein; assay: apparent KD of MS2 coat protein; designed switch direction (-1 OFF switch, 1 ON switch): 1; higher = weaker reporter binding; conditions: Eterna round: R95; input ligand: FMN 200 uM
Tag: true (1) if measured apparent KD of MS2 coat protein is not below 40 nM, false (0) if it is.

[
  {
    "PRIMARY SEQUENCE": "AGGAAGGAGACUGAGGAUAUCGUUGAAAGGACAUGAGGAUCACCCAUGUGUAUAGGAUUGGAGAACGAGAAGGCAGAGGAGUGGA [JR_SS2_Sub045] (puzzle: Same State 2)",
    "CATEGORY LABEL": "false (0)"
  },
  {
    "PRIMARY SEQUENCE": "GUUAUACAUGAGGAUCACCCAUGUCAAUGUAGUCGAGGAUAUGGGCAGCUAUGAGGCGUACUAGAAGGCGAAGAGU [JL-ss1-3.12 ViennaUCT mod] (puzzle: Same State 1)",
    "CATEGORY LABEL": "true (1)"
  },
  {
    "PRIMARY SEQUENCE": "GCAUCACAUGAGGAUCACCCAUGUCUUCGGAGCCGAGGAUAUGGUCACUGUAAACAGUGGCCAGAAGGCGGGAUGC [SS1 - Son of Teenbexe v1] (puzzle: Same State 1)",
    "CATEGORY LABEL": "false (0)"
  },
  {
    "PRIMARY SEQUENCE": "AGUCCAGCCUGAGCUGGACAAAAGCAUGUACAUGAGGAUCACCCAUGUUCAUGUACAAGCUUUUUGCUCGUCUGAAU [Mat - hsa-mir-208a - Mod of JL - 47] (puzzle: Sensor for hsa-mir-208a)",
    "CATEGORY LABEL": "true (1)"
  },
  {
    "PRIMARY SEQUENCE": "UUAUAACAUGAGGAUCACCCAUGUCAUCUAAGUCGAGGAUAUGGGCAAAUAAUAUAAGAACCAGAAGGCGAAUAUU [Mat - Same State 1 - Mod of UCT - D46] (puzzle: Same State 1)",
    "CATEGORY LABEL": "true (1)"
  }
]

# bool: apparent KD of MS2 coat protein of GGUCCAGCCUGAGCUGGACAAAAGCAUGUACAUGAGGAUCACCCAUGUUCAUGUACAAGCUUUUUGCUCGUCUUAGG [salish99_208a_r3_070] (puzzle: Sensor for hsa-mir-208a) >= 40 nM
true (1)

# bool: apparent KD of MS2 coat protein of CGUCCAGCCUGAGCUGGACAAAAGCAUGUACAUGAGGAUCACCCAUGUUCAUGUACAAGCUUUUUGCUCGUCUUAUU [salish99_208a_r3_050] (puzzle: Sensor for hsa-mir-208a) >= 40 nM
true (1)
